- TARGET ENTITY: PLK1 kinase domain (Homo sapiens)
- Construct: made in house; host or cells: baculovirus infected T. ni cells
- Sequence (P53350 21-346): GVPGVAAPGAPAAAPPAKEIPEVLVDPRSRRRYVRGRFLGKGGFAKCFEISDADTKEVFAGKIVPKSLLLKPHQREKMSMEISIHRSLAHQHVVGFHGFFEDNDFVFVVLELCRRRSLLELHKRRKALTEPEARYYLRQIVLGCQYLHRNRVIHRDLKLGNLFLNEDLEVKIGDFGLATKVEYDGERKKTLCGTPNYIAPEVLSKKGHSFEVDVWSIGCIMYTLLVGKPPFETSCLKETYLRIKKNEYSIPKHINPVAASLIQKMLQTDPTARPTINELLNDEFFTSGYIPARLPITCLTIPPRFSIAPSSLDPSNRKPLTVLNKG
- EXPERIMENTAL DETAILS: Assay for Inhibition of PLK1 (SPA, 33P-ATP)
- Assay type: biochemical
- TEST CONDITIONS: 2 nM PLK1 kinase domain, 1 μM ATP, 22° C.; read-out: PLK1 pIC50 (converted)
ASSAY ENDPOINT: IC50

Example entries and their recorded answers appear below.
C[C@@H](Oc1cc(-n2cnc3cc(-c4ccnc(N(C)CCN(C)C)c4)ccc32)sc1C(N)=O)c1ccccc1C(F)(F)F    < 100 nM
C[C@@H](Oc1cc(-n2cnc3cc(-c4cnc(NCCN5CCOCC5)nc4)ccc32)sc1C(N)=O)c1ccccc1Cl    < 100 nM
C[C@@H](Oc1cc(-n2cnc3cc(-c4ccc(NCCCN(C)C)nc4)ccc32)sc1C(N)=O)c1ccccc1Cl    < 100 nM
C[C@@H](Oc1cc(-n2cnc3cc(-c4ccnc(NCCN5CCOCC5)c4)ccc32)sc1C(N)=O)c1ccccc1Cl    < 100 nM
C[C@@H](Oc1cc(-n2cnc3cc(-c4ccc(NCCN5CCOCC5)nc4)ccc32)sc1C(N)=O)c1ccccc1Cl    < 100 nM
C[C@@H](Oc1cc(-n2cnc3cc(-c4cccc(OCCN5CCCC5)c4)ccc32)sc1C(N)=O)c1ccccc1Cl    < 100 nM
C[C@@H](Oc1cc(-n2cnc3cc(-c4ccc(NC(=O)CN5CCOCC5)cc4)ccc32)sc1C(N)=O)c1ccccc1Cl    < 100 nM
C[C@@H](Oc1cc(-n2cnc3cc(-c4ccnc(NCCN)c4)ccc32)sc1C(N)=O)c1ccccc1C(F)(F)F    < 100 nM
C[C@@H](Oc1cc(-n2cnc3cc(-c4ccc(NCCCN5CCN(C)CC5)nc4)ccc32)sc1C(N)=O)c1ccccc1Cl    < 100 nM
C[C@@H](Oc1cc(-n2cnc3cc(-c4ccc(NCCN(C)C)nc4)ccc32)sc1C(N)=O)c1ccccc1C(F)(F)F    < 100 nM

### Prompt Recorded IC50 of C[C@@H](Oc1cc(-n2cnc3cc(-c4ccnc(NCCCN(C)C)c4)ccc32)sc1C(N)=O)c1ccccc1C(F)(F)F , please.
### Response < 100 nM

### Prompt Item: C[C@@H](Oc1cc(-n2cnc3cc(-c4ccnc(NCCCN5CCN(C)CC5)c4)ccc32)sc1C(N)=O)c1ccccc1Cl
### Response < 100 nM

### Prompt Item: C[C@@H](Oc1cc(-n2cnc3cc(-c4ccnc(NC(=O)CN)c4)ccc32)sc1C(N)=O)c1ccccc1C(F)(F)F
### Response < 100 nM

### Prompt Item: C[C@@H](Oc1cc(-n2cnc3cc(-c4ccnc(N(C)CCCN(C)C)c4)ccc32)sc1C(N)=O)c1ccccc1C(F)(F)F
### Response < 100 nM

### Prompt Item: C[C@@H](Oc1cc(-n2cnc3cc(-c4cnc(NCCCN(C)C)nc4)ccc32)sc1C(N)=O)c1ccccc1Cl
### Response < 100 nM

### Prompt Item: C[C@@H](Oc1cc(-n2cnc3cc(-c4ccc(N(C)CCCN(C)C)nc4)ccc32)sc1C(N)=O)c1ccccc1Cl
### Response < 100 nM

### Prompt Item: C[C@@H](Oc1cc(-n2cnc3cc(-c4ccnc(NC(=O)CN(C)C)c4)ccc32)sc1C(N)=O)c1ccccc1C(F)(F)F
### Response < 100 nM

### Prompt Item: C[C@@H](Oc1cc(-n2cnc3cc(-c4ccc(N(C)CCN(C)C)nc4)ccc32)sc1C(N)=O)c1ccccc1Cl
### Response < 100 nM

### Prompt Item: C[C@@H](Oc1cc(-n2cnc3cc(-c4cnc(NCCCN5CCN(C)CC5)nc4)ccc32)sc1C(N)=O)c1ccccc1Cl
### Response < 100 nM

### Prompt Item: CC(C)[C@H](N)C(=O)OCCNc1cc(-c2ccc3c(c2)ncn3-c2cc(O[C@H](C)c3ccccc3Cl)c(C(N)=O)s2)ccn1
### Response < 100 nM
